# Test system: 227483-062-R1-J1-PDC complex spheroids with HUVEC/MSC, viability
# method-description: Anticancer human tumor 227483-062-R1-J1-PDC patient-derived pancreatic carcinoma cell line growth inhibition [CLK]
# experimental-context: second compound 0.0316 µM; first compound 0.0316 µM; stronger effect = lower value
measured-parameter: viability, T/C (%)
Unit % implied. Number only.

For orientation, consider the following solved cases.
compound="O=c1[nH]cc(F)c(=O)[nH]1 + CN1CCN(c2cc(C(=O)Nc3cc4cc(-c5cnn(C)c5)ccc4cn3)ccn2)CC1" measured_parameter="viability, T/C" value_observed=113
compound="O=C(c1cc(Cc2n[nH]c(=O)c3ccccc23)ccc1F)N1CCN(C(=O)C2CC2)CC1 + CNC(=O)c1ccc(Nc2nc(OC3CCCC3)c3c(-c4ccc5nc(C)oc5c4)c[nH]c3n2)c(OC)c1" measured_parameter="viability, T/C" value_observed=86.9
compound="Cn1ncnc1[C@H]1c2n[nH]c(=O)c3cc(F)cc(c23)N[C@@H]1c1ccc(F)cc1 + CNC(=O)c1ccc(Nc2nc(OC3CCCC3)c3c(-c4ccc5nc(C)oc5c4)c[nH]c3n2)c(OC)c1" measured_parameter="viability, T/C" value_observed=89.1
compound="O=C(c1cc(Cc2n[nH]c(=O)c3ccccc23)ccc1F)N1CCN(C(=O)C2CC2)CC1 + CN1CCN(c2cc(C(=O)Nc3cc4cc(-c5cnn(C)c5)ccc4cn3)ccn2)CC1" measured_parameter="viability, T/C" value_observed=94.6
compound="CCc1c2c(nc3ccc(O)cc13)-c1cc3c(c(=O)n1C2)COC(=O)[C@]3(O)CC + CNC(=O)c1ccc(Nc2nc(OC3CCCC3)c3c(-c4ccc5nc(C)oc5c4)c[nH]c3n2)c(OC)c1" measured_parameter="viability, T/C" value_observed=81.2

Prompt: Which value of viability, T/C has been reported for COc1c(OCCCN2CCOCC2)ccc2c3n(c(=NC(=O)c4cnc(N)nc4)nc12)CCN3 + CN1CCN(c2cc(C(=O)Nc3cc4cc(-c5cnn(C)c5)ccc4cn3)ccn2)CC1 in the records?
Response: 74.2

Prompt: # iterate: CC(CO)NC(=O)c1cc(-c2ccc(Cl)cc2)nn(-c2cnn(C)c2)c1=O (stereo not given) + CN1CCN(c2cc(C(=O)Nc3cc4cc(-c5cnn(C)c5)ccc4cn3)ccn2)CC1
Response: 88.9

Prompt: # iterate: CCN1CCN(Cc2ccc(Nc3ncc(F)c(-c4cc(F)c5nc(C)n(C(C)C)c5c4)n3)nc2)CC1 + CN1CCN(c2cc(C(=O)Nc3cc4cc(-c5cnn(C)c5)ccc4cn3)ccn2)CC1
Response: 101

Prompt: # iterate: C=C(F)C(=O)N1CCN(c2nc(OCC3CCCN3C)nc3c2CCN(c2cccc4cccc(Cl)c24)C3)CC1CC#N (stereo not given) + CN1CCN(c2cc(C(=O)Nc3cc4cc(-c5cnn(C)c5)ccc4cn3)ccn2)CC1
Response: 87.7

Prompt: # iterate: CC1COCCN1c1cc(C2(S(C)(=N)=O)CC2)nc(-c2ccnc3[nH]ccc23)n1 (stereo not given) + CNC(=O)c1ccc(Nc2nc(OC3CCCC3)c3c(-c4ccc5nc(C)oc5c4)c[nH]c3n2)c(OC)c1
Response: 110

Prompt: # iterate: C#Cc1c(F)ccc2cc(O)cc(-c3ncc4c(N5CC6CCC(C5)N6)nc(OCC56CCCN5CC(F)C6)nc4c3F)c12 (stereo not given) + CNC(=O)c1ccc(Nc2nc(OC3CCCC3)c3c(-c4ccc5nc(C)oc5c4)c[nH]c3n2)c(OC)c1
Response: 101

* * *

# Test system: 227483-062-R1-J1-PDC complex spheroids with HUVEC/MSC, viability
# method-description: Anticancer human tumor 227483-062-R1-J1-PDC cell line growth inhibition [CLK]; active = viability on the fitted dose curve at most 10% of control; inactive = the rest;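 note: spheroids exposed to compounds for seven days before readout; percent of DMSO vehicle control luminescence as 100% viability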
# experimental-context: second compound 0.0316 µM; first compound 0.003 µM
Hello, when you answer, please use one of the following outcomes: true (1) (active), false (0) (inactive)

compound="C=CC(=O)Nc1cc(Nc2nccc(-c3cn(C)c4ccccc34)n2)c(OC)cc1N(C)CCN(C)C + CNC(=O)c1ccc(Nc2nc(OC3CCCC3)c3c(-c4ccc5nc(C)oc5c4)c[nH]c3n2)c(OC)c1" label="false (0)"
compound="CC(C)CC(NC(=O)C(Cc1ccccc1)NC(=O)c1cnccn1)B(O)O (centres undefined) + CN1CCN(c2cc(C(=O)Nc3cc4cc(-c5cnn(C)c5)ccc4cn3)ccn2)CC1" label="true (1)"

Prompt: Please indicate how the test categorized C=CC(=O)Nc1cc(Nc2nccc(-c3cn(C)c4ccccc34)n2)c(OC)cc1N(C)CCN(C)C + CN1CCN(c2cc(C(=O)Nc3cc4cc(-c5cnn(C)c5)ccc4cn3)ccn2)CC1 .
Response: false (0)

Prompt: # iterate: CC(C)CC(NC(=O)C(Cc1ccccc1)NC(=O)c1cnccn1)B(O)O (centres undefined) + CNC(=O)c1ccc(Nc2nc(OC3CCCC3)c3c(-c4ccc5nc(C)oc5c4)c[nH]c3n2)c(OC)c1
Response: true (1)

* * *

# Tested on: 227483-062-R1-J1-PDC complex spheroids with HUVEC/MSC, viability
# method-description: Anticancer human tumor 227483-062-R1-J1-PDC cell line growth inhibition [CLK];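 note: spheroids exposed to compounds for seven days before readout; percent of DMSO vehicle control luminescence as 100% viability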
# experimental-context: second compound 0.0316 µM; first compound 0.0316 µM; stronger effect = lower value
measured-parameter: viability, T/C (%)
Unit % implied. Number only.

For orientation, consider the following solved cases.
molecule="CC(=O)O[C@H]1C(=O)[C@@]2(C)[C@H]([C@H](OC(=O)c3ccccc3)[C@]3(O)C[C@H](OC(=O)[C@H](O)[C@@H](NC(=O)c4ccccc4)c4ccccc4)C(C)=C1C3(C)C)[C@]1(OC(C)=O)CO[C@@H]1C[C@@H]2O + CN1CCN(c2cc(C(=O)Nc3cc4cc(-c5cnn(C)c5)ccc4cn3)ccn2)CC1" system_under_test="227483-062-R1-J1-PDC complex spheroids with HUVEC/MSC, viability" value_observed=27.4
molecule="COC1C=CCC(C)C(C)S(=O)(=O)NC(=O)c2ccc3c(c2)N(CC2CCC21)CC1(CCCc2cc(Cl)ccc21)CO3 (centres undefined) + CN1CCN(c2cc(C(=O)Nc3cc4cc(-c5cnn(C)c5)ccc4cn3)ccn2)CC1" system_under_test="227483-062-R1-J1-PDC complex spheroids with HUVEC/MSC, viability" value_observed=94.5
molecule="CC(Nc1ccc2c(c1)OCCn1cc(N3C(=O)OCC3C(F)F)nc1-2)C(N)=O (centres undefined) + CN1CCN(c2cc(C(=O)Nc3cc4cc(-c5cnn(C)c5)ccc4cn3)ccn2)CC1" system_under_test="227483-062-R1-J1-PDC complex spheroids with HUVEC/MSC, viability" value_observed=108
molecule="CC(CO)NC(=O)c1cc(-c2ccc(Cl)cc2)nn(-c2cnn(C)c2)c1=O (centres undefined) + CNC(=O)c1ccc(Nc2nc(OC3CCCC3)c3c(-c4ccc5nc(C)oc5c4)c[nH]c3n2)c(OC)c1" system_under_test="227483-062-R1-J1-PDC complex spheroids with HUVEC/MSC, viability" value_observed=100
molecule="CC(Nc1ccc2c(c1)OCCn1cc(N3C(=O)OCC3C(F)F)nc1-2)C(N)=O (centres undefined) + CNC(=O)c1ccc(Nc2nc(OC3CCCC3)c3c(-c4ccc5nc(C)oc5c4)c[nH]c3n2)c(OC)c1" system_under_test="227483-062-R1-J1-PDC complex spheroids with HUVEC/MSC, viability" value_observed=105

Prompt: Which value of viability, T/C has been reported for CC1(C)CCC(CN2CCN(c3ccc(C(=O)NS(=O)(=O)c4ccc(NCC5CCOCC5)c([N+](=O)[O-])c4)c(Oc4cnc5[nH]ccc5c4)c3)CC2)=C(c2ccc(Cl)cc2)C1 + CNC(=O)c1ccc(Nc2nc(OC3CCCC3)c3c(-c4ccc5nc(C)oc5c4)c[nH]c3n2)c(OC)c1 in the records?
Response: 96.7

Prompt: # iterate: C=CC(=O)N1CCN(c2nc(=O)n(-c3c(C)ccnc3C(C)C)c3nc(-c4c(O)cccc4F)c(F)cc23)C(C)C1 (centres undefined) + CN1CCN(c2cc(C(=O)Nc3cc4cc(-c5cnn(C)c5)ccc4cn3)ccn2)CC1
Response: 90.4

Prompt: # iterate: C#Cc1c(F)ccc2cc(O)cc(-c3ncc4c(N5CC6CCC(C5)N6)nc(OCC56CCCN5CC(F)C6)nc4c3F)c12 (centres undefined) + CN1CCN(c2cc(C(=O)Nc3cc4cc(-c5cnn(C)c5)ccc4cn3)ccn2)CC1
Response: 95.4

Prompt: # iterate: CCN1CCN(Cc2ccc(Nc3ncc(F)c(-c4cc(F)c5nc(C)n(C(C)C)c5c4)n3)nc2)CC1 + CNC(=O)c1ccc(Nc2nc(OC3CCCC3)c3c(-c4ccc5nc(C)oc5c4)c[nH]c3n2)c(OC)c1
Response: 86.9

* * *

# Tested on: 227483-062-R1-J1-PDC complex spheroids with HUVEC/MSC, viability
# method-description: Anticancer human tumor 227483-062-R1-J1-PDC cell line growth inhibition [CLK]; active = viability on the fitted dose curve at most 10% of control; inactive = the rest;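 note: spheroids exposed to compounds for seven days before readout; percent of DMSO vehicle control luminescence as 100% viability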
# experimental-context: second compound 10 µM; first compound 0.1 µM
# Source text: A high-throughput screen of multi-cell type tumor spheroids was designed to identify active combinations of […] and targeted small molecules. Complex spheroids include a stromal component modeled by human endothelial cells (HUVEC) and fibroblasts modeled by human mesenchymal stem cells (MSCs). […] Compounds. […] If the clinical Cmax for an agent had not been determined, the highest concentration tested was 10 microM. […]
Hello, when you answer, please use one of the following outcomes: 1 (yes) (active), 0 (no) (inactive)

compound="CC(=O)O[C@H]1C(=O)[C@@]2(C)[C@H]([C@H](OC(=O)c3ccccc3)[C@]3(O)C[C@H](OC(=O)[C@H](O)[C@@H](NC(=O)c4ccccc4)c4ccccc4)C(C)=C1C3(C)C)[C@]1(OC(C)=O)CO[C@@H]1C[C@@H]2O + CNC(=O)c1ccc(Nc2nc(OC3CCCC3)c3c(-c4ccc5nc(C)oc5c4)c[nH]c3n2)c(OC)c1" system_under_test="227483-062-R1-J1-PDC complex spheroids with HUVEC/MSC, viability" label="0 (no)"
compound="COc1ccc([C@@H](O)c2cc(-c3ncnc4cc(N5CCOCC5)ccc34)c(F)cc2Cl)nn1 + CN1CCN(c2cc(C(=O)Nc3cc4cc(-c5cnn(C)c5)ccc4cn3)ccn2)CC1" system_under_test="227483-062-R1-J1-PDC complex spheroids with HUVEC/MSC, viability" label="1 (yes)"
compound="COc1ccc([C@@H](O)c2cc(-c3ncnc4cc(N5CCOCC5)ccc34)c(F)cc2Cl)nn1 + CNC(=O)c1ccc(Nc2nc(OC3CCCC3)c3c(-c4ccc5nc(C)oc5c4)c[nH]c3n2)c(OC)c1" system_under_test="227483-062-R1-J1-PDC complex spheroids with HUVEC/MSC, viability" label="0 (no)"

Could you now look at the following compound, please?
Prompt: Please indicate how the test categorized Cn1ncnc1[C@H]1c2n[nH]c(=O)c3cc(F)cc(c23)N[C@@H]1c1ccc(F)cc1 + CNC(=O)c1ccc(Nc2nc(OC3CCCC3)c3c(-c4ccc5nc(C)oc5c4)c[nH]c3n2)c(OC)c1 .
Response: 0 (no)
